- assayed_target: T1, Fc alpha receptor-ECD-streptavidin-Alexa488 (human, UniProt P24071 22-227, labeled with Alexa488 fluorescent molecules (sites not given))
- T1 construct: Tetrameric antigen made in Expi293F cells and labelled with Alexa488 for flow cytometry; Any linker or purification tag (Ni-NTA resin was used) is not described; also called Fc alpha receptor-ECD-streptavidin-Alexa488 probe; Fc alpha receptor-ECD-streptavidin-Alexa488 antigen; not shown: streptavidin tag
- T1 sequence (P24071 22-227 limits assumed): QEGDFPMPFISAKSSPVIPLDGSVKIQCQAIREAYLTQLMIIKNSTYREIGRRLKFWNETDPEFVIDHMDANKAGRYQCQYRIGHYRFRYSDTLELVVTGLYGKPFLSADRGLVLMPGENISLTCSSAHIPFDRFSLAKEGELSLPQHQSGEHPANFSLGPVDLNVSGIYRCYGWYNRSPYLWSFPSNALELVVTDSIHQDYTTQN
- method_description: flow cytometry, scFv displayed on E. coli spheroplasts, 50 nM Alexa488-labelled antigen

binder: scFv antibody variant JS48 (scFv, V domains shown) VH: QVQLQESGGGLVQPGGSLRLTCAGSGFTFSNFAMAWVRLAPGKGLEWVSGISDDGTITDYADSVKGRFTISRDNSKNTLYLQMNSLRAEDTAVYYCVKVPSPAPMQGPDYWGQGTLVTVSS VL: ETTLTQSPSSLSASVGDRVTITCRASQSISTYLNWYQQKPGKAPKSLIYGASNLQSGVSSQFSGRGPGTDFTLTISSLQPEDFATYYCQQGNSVPLTFGGGTKVDIKR
binding result: binds
